B1: Nephronectin (Mus musculus), Q91V88 (parent)
chain: MAVLLAAVLASSLYLQVAADFDGRWPRQIVSSIGLCRYGGRIDCCWGWARQSWGQCQPVCQPQCKHGECVGPNKCKCHPGFAGKTCNQDLNECGLKPRPCKHRCMNTFGSYKCYCLNGYMLLPDGSCSSALSCSMANCQYGCDVVKGQVRCQCPSPGLQLAPDGRTCVDIDECATGRVSCPRFRQCVNTFGSYICKCHTGFDLMYIGGKYQCHDIDECSLGQHQCSSYARCYNIHGSYKCQCRDGYEGDGLNCVYIPKVMIEPSGPIHMPERNGTISKGDGGHANRIPDAGSTRWPLKTPYIPPVITNRPTSKPTTRPTPNPTPQPTPPPPPPLPTEPRTTPLPPTPERPSTRPTTIAPATSTTTRVITVDNRIQTDPQKPRGDVFIPRQPTNDLFEIFEIERGVSADEEVKDDPGILIHSCNFDHGLCGWIREKDSDLHWETARDPAGGQYLTVSAAKAPGGKAARLVLRLGHLMHSGDLCLSFRHKVTGLHSGTLQVFVRKHGTHGAALWGRNGGHGWRQTQITLRGADVKSVIFKGEKRRGHTGEIGLDDVSLKRGRC

Variants of: B1
Setup Conditions: with agrin_human AGRN
Readout Name: effect of a mutation on the interaction

Below are worked cases with known answers.
- Variant Descriptor: "R471A"
  effect of a mutation on the interaction: "decreasing interaction"
- Variant Descriptor: "R502A;K503A;H504A"
  effect of a mutation on the interaction: "decreasing interaction"
- Variant Descriptor: "K459A;K464A"
  effect of a mutation on the interaction: "decreasing interaction"
- Variant Descriptor: "K541A;R542A;R543A"
  effect of a mutation on the interaction: "decreasing interaction"
- Variant Descriptor: "K557A;R558A;G559A;R560A"
  effect of a mutation on the interaction: "decreasing interaction"

Form: variant = R528A ; effect of a mutation on the interaction = decreasing interaction

Form: variant = R445A ; effect of a mutation on the interaction = decreasing interaction
